From: PubChem BioAssay AID743413

Test: toxicity toward A549 lung cells – cell-based, plate reader, dry powder, set 11, cytotoxicity control, dose response (AID 743413)
Settings: A549 viability, CellTiter-Glo ATP luminescence, 72 h; at 26 µM (top of the series)
Value Type: activity change, negative = cytotoxicity (%)
Expressed in %, but write only the number.

COC(=O)CCCN(C)C(=O)c1ccc(OCC(=O)Nc2cccc(OC)c2)cc1 | -0.651
CC1(C)CC(NC(=O)c2ccc(OCC(=O)Nc3cccc(C(F)(F)F)c3)cc2)CC(C)(C)N1 | -14.3

*Q* Bench note: what activity change, negative = cytotoxicity did `O=C(COc1ccc(C(=O)N2CCC2)cc1)Nc1cccc(C(F)(F)F)c1` show?
*A* 2.9

*Q* Now consider `O=C(O)CSc1c2c(nc3cc(C(=O)NCc4cccs4)ccc13)CCCC2` .
*A* -2.24

*Q* Same lookup for `CCN(CC)C(=O)CSc1c2c(nc3ccc(Cl)cc13)CCCC2` , please.
*A* -10.9

*Q* Input `CN(CCOc1ccccc1)C(=O)c1ccc(OCC(=O)Nc2cccc(C(F)(F)F)c2)cc1`
*A* 0.912

*Q* Same lookup for `CCOc1ccc(NC(=O)COc2ccc(C(=O)N3CCC(C(N)=O)CC3)cc2OC)cc1` , please.
*A* -3.38

*Q* What do you have for O=C(COc1ccc(C(=O)NCC2CCCO2)cc1)Nc1cccc(C(F)(F)F)c1 (stereo not given) ?
*A* 1.08

*Q* And `O=C(COc1ccccc1C(=O)NCc1ccccc1)Nc1ccccc1` ?
*A* -5.99

*Q* Another: `CCOC(=O)N1CCC(NC(=O)CSc2c3c(nc4ccc(Cl)cc24)CCCC3)CC1`
*A* -13.1
